Reference source for all entries: patent US20220324835A1

IC50 by entry:
- study_target: Cbl-b (Homo sapiens, UniProt Q13191)
- Sequence (Q13191 36-427): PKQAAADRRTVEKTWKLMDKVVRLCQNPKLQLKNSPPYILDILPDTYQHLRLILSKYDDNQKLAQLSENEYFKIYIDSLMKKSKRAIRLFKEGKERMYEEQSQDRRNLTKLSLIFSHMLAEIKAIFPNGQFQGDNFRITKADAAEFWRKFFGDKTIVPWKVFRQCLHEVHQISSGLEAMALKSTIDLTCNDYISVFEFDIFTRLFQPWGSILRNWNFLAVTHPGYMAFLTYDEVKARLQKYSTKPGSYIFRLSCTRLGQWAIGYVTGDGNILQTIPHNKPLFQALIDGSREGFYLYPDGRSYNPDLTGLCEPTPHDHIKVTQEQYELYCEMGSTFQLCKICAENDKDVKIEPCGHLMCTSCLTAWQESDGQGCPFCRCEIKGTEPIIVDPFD
- assay_remarks: Cbl-b activity assay (Cbl-b inhibition assay), TR-FRET of Cbl-b interaction with UbcH5B-Ub
- Type: biochemical
- condition_label: assay buffer with 100 mM NaCl, 60 nM Src kinase; read-out: Cbl-b activity IC50

These solved cases illustrate the format of a correct answer.
Input: Param readout= IC50; system= Cbl-b (Homo sapiens, UniProt Q13191); entry= C[C@H](Sc1nncn1C)c1cccc(NC(=O)c2cc(C(=O)N3C[C@@H](O)C[C@H]3C)ccn2)c1 ; returns value.
Output: 3 to 10 µM

Input: Under Cbl-b (Homo sapiens, UniProt Q13191): IC50 value of Cn1cnnc1C(F)(F)[C@](C)(F)c1cccc(N2Cc3c(cc(CN4CC[C@@H](C#N)C4)cc3C(F)(F)F)C2=O)c1 ?
Output: < 0.1 µM

Input: So what IC50 did Cn1cnnc1CC1(c2cccc(N3Cc4c(cc(CN5CC[C@H](F)C5)nc4C4CC4)C3=O)c2)COC1 get with Cbl-b (Homo sapiens, UniProt Q13191)?
Output: < 0.1 µM

Input: // fetch Cbl-b (Homo sapiens, UniProt Q13191) IC50 for C[C@H](c1cc2c(c(C(F)(F)F)c1)CN(c1cccc(C3([C@H](F)c4nncn4C)COC3)c1)C2=O)N1CCC2(CC2)C1 (stereo in doubt) [Example 575]
Output: < 0.1 µM

Input: What is its IC50 for Cbl-b (Homo sapiens, UniProt Q13191)? Entry: Cn1cnnc1[C@@H](F)C1(c2cccc(N3Cc4c(cc(CN5CCC6(CC6)C5)cc4C(F)(F)F)C3=O)c2)COC1
Output: < 0.1 µM

Input: Lab note: need IC50 with Cbl-b (Homo sapiens, UniProt Q13191) for entry CC(c1cc(C(=O)Nc2cccc(C3(Cc4nncn4C)COC3)c2)nc(C2CC2)n1)N1CC(F)C1 (stereo not drawn) , please look it up.
Output: < 0.1 µM

Input: Give the reported IC50 for Cn1cnnc1C(F)[C@](C)(F)c1cccc(N2Cc3c(cccc3C(F)(F)F)C2=O)c1 (stereo in doubt) [Compound 478a] (system: Cbl-b (Homo sapiens, UniProt Q13191)).
Output: 0.301 to 1 µM

Input: State its IC50 on Cbl-b (Homo sapiens, UniProt Q13191): COc1cc(C(=O)Nc2cccc([C@H](C)Cc3nncn3C)c2)nc(C(F)(F)F)c1
Output: 0.301 to 1 µM

Input: What is its IC50 for Cbl-b (Homo sapiens, UniProt Q13191)? Entry: C[C@@H](Sc1nncn1C)c1ccc(F)c(N2Cc3c(cccc3C(F)(F)F)C2=O)c1
Output: > 10 µM

Input: Reported IC50 for Cbl-b (Homo sapiens, UniProt Q13191), given C[C@H](Sc1nncn1C)c1ccc(F)c(N2Cc3c(cccc3C(F)(F)F)C2=O)c1 ?
Output: 1 to 3 µM

New cases:
Input: Under Cbl-b (Homo sapiens, UniProt Q13191): IC50 value of C[C@H](Sc1nncn1C)c1cccc(NC(=O)c2cc(C(=O)N3CC[C@H](O)C3)ccn2)c1 ?
Output: 0.1 to 0.3 µM

Input: Observed IC50 on Cbl-b (Homo sapiens, UniProt Q13191) for C[C@H](Cc1nncn1C)c1cccc(NC(=O)c2cncc(C(F)(F)F)n2)c1 , please.
Output: 0.1 to 0.3 µM

Input: Form entry - test system: Cbl-b (Homo sapiens, UniProt Q13191); read-out: IC50; compound: CC(Sc1nncn1C)c1cc(NC2CCOC2)nc(N2Cc3c(cccc3C(F)(F)F)C2=O)c1 (stereo not drawn)
Output: 3 to 10 µM

Input: Which IC50 is reported with Cbl-b (Homo sapiens, UniProt Q13191) for this entry: Cc1ccnn1CC(C)c1cccc(NC(=O)c2cccc(C(F)(F)F)n2)c1 (stereo not drawn) ?
Output: 0.301 to 1 µM

Input: Hi! What's the reported IC50 for CC(c1cccc(N2Cc3c(cccc3C(F)(F)F)C2=O)c1)C(F)(F)c1nncn1C (stereo not drawn) on Cbl-b (Homo sapiens, UniProt Q13191)?
Output: 0.301 to 1 µM
